target.or.test.system: CDK2/Cyclin A (Homo sapiens, UniProt P24941)
assay.notes: Inhibition of CDK2/Cyclin A Retinoblastoma Kinase Activity
Type: biochemical
measurement.setup: read-out: % inhibition of CDK2 (@ 0.05 μM), compound at 0.05 μM
Protocol: Cyclin-dependent kinase activity was measured by quantifying the enzyme-catalyzed, time-dependent incorporation of radioactive phosphate from [^32P]ATP or [^33P]ATP into a protein substrate. […] The phosphorylated substrate was then captured on a nitrocellulose or phosphocellulose membrane using a 96-well filtration manifold, and unincorporated radioactivity was removed by repeated washing with 0.85% phosphoric acid. Radioactivity was quantified by exposing the dried membranes to a phosphorimager. […]
endpoint.label: inhibition at 0.05 µM (%)

Nc1nc(NC2CCN(S(=O)(=O)CCCNCCN3CCCC3)CC2)sc1C(=O)c1c(F)cccc1F [Example V9]	78
CC(C)N1CCN(CCCS(=O)(=O)N2CCC(Nc3nc(N)c(C(=O)c4c(F)cccc4F)s3)CC2)CC1 [Example V115]	75
Nc1nc(NC2CCN(S(=O)(=O)CCCNC3CCCC3)CC2)sc1C(=O)c1c(F)cccc1F [Example V75]	88
Nc1nc(NC2CCN(S(=O)(=O)CCCNCc3ccccc3)CC2)sc1C(=O)c1c(F)cccc1F [Example V12]	93
Cc1ccccc1CNCCCS(=O)(=O)N1CCC(Nc2nc(N)c(C(=O)c3c(F)cccc3F)s2)CC1 [Example V27]	93
Nc1nc(NC2CCN(S(=O)(=O)CCCNCCc3cccnc3)CC2)sc1C(=O)c1c(F)cccc1F [Example V114]	86
Nc1nc(NC2CCN(S(=O)(=O)CCCN[C@@H]3CONC3=O)CC2)sc1C(=O)c1c(F)cccc1F [Example V21]	86

* * *

System: HCT-116 cell line
assay.notes: Inhibition of cell growth, tetrazolium salt (MTT) assay
Format: cell-based
measurement.setup: 0.1 μM compound; HCT-116; Table 3
Recorded HCT-116 % Inhibition at 0.1 μM, one value per entry.
A number alone suffices; assume %.

Past entries and their recorded results:
Cc1nn(C)c(Cl)c1S(=O)(=O)N1CCC(Nc2nc(N)c(C(=O)c3c(F)cccc3F)s2)CC1	14
CCc1ccc(S(=O)(=O)N2CCC(Nc3nc(N)c(C(=O)c4c(F)cccc4F)s3)CC2)cc1	9
[N-]=[N+]=C1C=C(S(=O)(=O)N2CCC(Nc3nc(N)c(C(=O)c4c(F)cccc4F)s3)CC2)c2ccccc2C1=O	10

Challenge: Request: HCT-116 % Inhibition at 0.1 μM, test system HCT-116 cell line, entry Nc1nc(NC2CCN(S(=O)(=O)Cc3ccccc3)CC2)sc1C(=O)c1c(F)cccc1F
Response given: 8

* * *

System: HCT-116 cell line
assay.notes: Inhibition of cell growth, tetrazolium salt (MTT) assay
Format: cell-based
measurement.setup: Homo sapiens, HCT-116, 120 h, first HCT-116 column (c4); MTT, three to five days; read-out: HCT-116 IC50
Where a name gives a salt, the structure may show the parent alone.
endpoint.label: IC50 (nM)

Nc1nc(NC2CCN(S(=O)(=O)c3ccc(N4CCNCC4)nc3)CC2)sc1C(=O)c1c(F)cccc1F	210
CCN(CC)CCOc1ccc(S(=O)(=O)N2CCC(Nc3nc(N)c(C(=O)c4c(F)cccc4F)s3)CC2)cn1 [Example H18, Trifluoroacetic Acid Salt]	55
Nc1nc(NC2CCN(S(=O)(=O)c3ccc(OCCN4CCCCC4)nc3)CC2)sc1C(=O)c1c(F)cccc1F [Example H6, Dihydrochloride]	60

I. Cc1cn(-c2ccc(S(=O)(=O)N3CCC(Nc4nc(N)c(C(=O)c5c(F)cccc5F)s4)CC3)cn2)cn1 [Example G27, Hydrochloride]
II. COCCNCCS(=O)(=O)N1CCC(Nc2nc(N)c(C(=O)c3c(F)cccc3F)s2)CC1 [Example K25, Trifluoroacetic Acid Salt]
III. Nc1nc(NC2CCN(S(=O)(=O)CCNCc3cccc(Cl)c3)CC2)sc1C(=O)c1c(F)cccc1F
IV. CS(=O)(=O)c1ccc(S(=O)(=O)N2CCC(Nc3nc(N)c(C(=O)c4c(F)cccc4F)s3)CC2)cc1
Challenge: Please list the entries, largest IC50 first. Please express your ranking as an ordered list of the labels.
Response given: II, IV, III, I
(II: 880 nM, IV: 190 nM, III: 110 nM, I: 57 nM)

* * *

target.or.test.system: CDK2/Cyclin A (Homo sapiens)
assay.notes: Inhibition of CDK2/Cyclin A Retinoblastoma Kinase Activity
Type: biochemical
measurement.setup: read-out: % inhibition of CDK2 (@ 0.05 μM), compound at 0.05 μM
endpoint.label: inhibition at 0.05 µM (%)

1. Nc1nc(NC2CCN(S(=O)(=O)CCCNCCN3CCCCC3)CC2)sc1C(=O)c1c(F)cccc1F
2. Nc1nc(NC2CCN(S(=O)(=O)CCCN3CCCC3)CC2)sc1C(=O)c1c(F)cccc1F
Challenge: Lab note: check whether 1 or 2 shows the higher recorded inhibition at 0.05 µM. Let me know the label of the one you choose.
Response given: 1
(1: 79%, 2: 17%)

P. Nc1nc(NC2CCN(S(=O)(=O)CCCNCCc3ncn[nH]3)CC2)sc1C(=O)c1c(F)cccc1F
Q. CC(=O)NCCNCCCS(=O)(=O)N1CCC(Nc2nc(N)c(C(=O)c3c(F)cccc3F)s2)CC1
Challenge: Of the pair P and Q , name the member with the lesser recorded inhibition at 0.05 µM. State your choice using its label.
Response given: Q

1. Nc1nc(NC2CCN(S(=O)(=O)CCCNCc3ccc(F)cc3)CC2)sc1C(=O)c1c(F)cccc1F
2. CN(C)CCCNCCCS(=O)(=O)N1CCC(Nc2nc(N)c(C(=O)c3c(F)cccc3F)s2)CC1
Challenge: Min inhibition at 0.05 µM? 1 | 2 Reply briefly: the label of your chosen item.
Response given: 2
(2: 62%, 1: 92%)

* * *

target.or.test.system: CDK2/Cyclin A (Homo sapiens, UniProt P24941)
assay.notes: Inhibition of CDK2/Cyclin A Retinoblastoma Kinase Activity
Assay type: biochemical
measurement.setup: at 0.03 μM
endpoint.label: CDK2 % Inhibition at 0.03 μM (%)

Nc1nc(NC2CCN(C(=O)c3cccc(F)c3)CC2)sc1C(=O)c1c(F)cccc1F	59
Nc1nc(NC2CCN(C(=O)C34CC5CC(CC(C5)C3)C4)CC2)sc1C(=O)c1c(F)cccc1F	21
CC(C)(C)c1ccc(C(=O)N2CCC(Nc3nc(N)c(C(=O)c4c(F)cccc4F)s3)CC2)cc1	37
Cc1cccc(C(=O)N2CCC(Nc3nc(N)c(C(=O)c4c(F)cccc4F)s3)CC2)c1C	18
Nc1nc(NC2CCN(C(=O)c3cccnc3Sc3ccc(Cl)cc3)CC2)sc1C(=O)c1c(F)cccc1F	−73
Nc1nc(NC2CCN(C(=O)c3cc(Cl)ccc3Cl)CC2)sc1C(=O)c1c(F)cccc1F	56

a. Cc1oc(-c2ccccc2)cc1C(=O)N1CCC(Nc2nc(N)c(C(=O)c3c(F)cccc3F)s2)CC1
b. CC(C)(C)COC(=O)N1CCC(Nc2nc(N)c(C(=O)c3c(F)cccc3F)s2)CC1
Challenge: Lower CDK2 % Inhibition at 0.03 μM: a or b ? Mark your selection by writing its label.
Response given: b
(b: 6%, a: 19%)

* * *

System: HCT-116 cell line
assay.notes: Inhibition of cell growth, tetrazolium salt (MTT) assay
Format: cell-based
measurement.setup: 0.25 μM compound; HCT-116; Table 2
endpoint.label: HCT-116 % Inhibition at 0.25 μM (%)
# number only, unit % dropped from output

Here's what some known entries look like.
Nc1nc(NC2CCN(C(=O)Nc3cc(Cl)nc(Cl)c3)CC2)sc1C(=O)c1c(F)cccc1F	37
Nc1nc(NC2CCN(C(=O)Nc3ccccc3C(F)(F)F)CC2)sc1C(=O)c1c(F)cccc1F	0
Nc1nc(NC2CCN(C(=O)Nc3ccccc3)CC2)sc1C(=O)c1c(F)cccc1F	0

Challenge: # get_value(readout='HCT-116 % Inhibition at 0.25 μM', item= Nc1nc(NC2CCN(C(=O)NCCc3ccccc3)CC2)sc1C(=O)c1c(F)cccc1F )
Response given: 41

Challenge: // returns reported HCT-116 % Inhibition at 0.25 μM for input CCOC(=O)CNC(=O)N1CCC(Nc2nc(N)c(C(=O)c3c(F)cccc3F)s2)CC1
Response given: 31

Challenge: Suppose we examine the compound CC(C)c1ccccc1NC(=O)N1CCC(Nc2nc(N)c(C(=O)c3c(F)cccc3F)s2)CC1 ; what HCT-116 % Inhibition at 0.25 μM value has been reported?
Response given: 3

Challenge: Please give the measured HCT-116 % Inhibition at 0.25 μM for this compound: N#Cc1ccc(NC(=O)N2CCC(Nc3nc(N)c(C(=O)c4c(F)cccc4F)s3)CC2)cc1
Response given: 37

* * *

target.or.test.system: human CDK4 and genetically truncated (1-264) cyclin D3 (Homo sapiens, UniProt P11802)
Sequence (P11802 whole entry, the tested form may be a part): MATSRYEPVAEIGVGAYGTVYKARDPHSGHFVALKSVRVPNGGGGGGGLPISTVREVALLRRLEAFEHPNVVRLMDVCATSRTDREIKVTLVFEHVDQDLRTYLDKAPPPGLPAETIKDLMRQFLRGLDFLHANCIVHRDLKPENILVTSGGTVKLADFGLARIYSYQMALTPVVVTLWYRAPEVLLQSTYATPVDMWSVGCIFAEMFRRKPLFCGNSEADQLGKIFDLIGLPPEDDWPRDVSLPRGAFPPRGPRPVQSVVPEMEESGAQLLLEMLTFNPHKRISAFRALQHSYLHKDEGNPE
Sequence (P30281 1-264 partner): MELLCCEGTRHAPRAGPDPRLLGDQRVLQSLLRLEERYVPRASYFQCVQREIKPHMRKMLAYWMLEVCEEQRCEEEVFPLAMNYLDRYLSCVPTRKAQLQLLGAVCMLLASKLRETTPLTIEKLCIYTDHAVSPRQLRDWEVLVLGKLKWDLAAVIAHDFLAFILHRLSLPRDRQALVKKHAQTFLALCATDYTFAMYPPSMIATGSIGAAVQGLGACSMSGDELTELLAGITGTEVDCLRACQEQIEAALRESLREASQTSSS
assay.notes: Inhibition of CDK4/Cyclin D Retinoblastoma Kinase Activity
Format: biochemical
measurement.setup: 0.03 μM compound; Table 3
endpoint.label: CDK4 % Inhibition at 0.03 μM (%)

CCCCOc1ccc(S(=O)(=O)N2CCC(Nc3nc(N)c(C(=O)c4c(F)cccc4F)s3)CC2)cc1 [Example P49]	54
Nc1nc(NC2CCN(S(=O)(=O)Cc3ccccc3)CC2)sc1C(=O)c1c(F)cccc1F [Example P25]	82

a. Nc1nc(NC2CCN(S(=O)(=O)c3ccc([N+](=O)[O-])cc3)CC2)sc1C(=O)c1c(F)cccc1F [Example P19]
b. CS(=O)(=O)CS(=O)(=O)N1CCC(Nc2nc(N)c(C(=O)c3c(F)cccc3F)s2)CC1 [Example P53]
c. CC(C)S(=O)(=O)N1CCC(Nc2nc(N)c(C(=O)c3c(F)cccc3F)s2)CC1 [Example P24]
d. Nc1nc(NC2CCN(S(=O)(=O)c3c(Cl)cc(Cl)cc3Cl)CC2)sc1C(=O)c1c(F)cccc1F [Example P57]
Challenge: Arrange by CDK4 % Inhibition at 0.03 μM, high to low. Would you mind listing the labels in the order asked for?
Response given: a, c, b, d
(a: 73%, c: 24%, b: 16%, d: 6%)

Taken from patent US20050101595A1.
